From: the NIST ThermoML archive (doi:10.1021/je900757k)

# Assay details: isobaric coefficient of expansion
# Stated conditions: 278.15 K; 20000 kPa; Liquid; DSC
Attribute measured: isobaric coefficient of expansion

Please supply the value of reported isobaric coefficient of expansion for the item ClC(Cl)(Cl)Cl [tetrachloromethane]
0.00106 1/K

Fill in reported isobaric coefficient of expansion for this entry: CCCCCCCCCC [decane]
0.000899 1/K

Give me measured isobaric coefficient of expansion, please, for this molecule: CCCCCCCCC [nonane]
0.000928 1/K

Give isobaric coefficient of expansion for the following molecule: CCCCCCCCCCC [undecane]
0.000873 1/K

Supply reported isobaric coefficient of expansion belonging to this molecule: CCCCCCCCCCCC [dodecane]
0.000854 1/K
